- TESTED TARGET: human FSH receptor (Homo sapiens, UniProt P23945)
- Construct: cotransfected with a CRE-luciferase reporter
- Sequence (P23945 18-695): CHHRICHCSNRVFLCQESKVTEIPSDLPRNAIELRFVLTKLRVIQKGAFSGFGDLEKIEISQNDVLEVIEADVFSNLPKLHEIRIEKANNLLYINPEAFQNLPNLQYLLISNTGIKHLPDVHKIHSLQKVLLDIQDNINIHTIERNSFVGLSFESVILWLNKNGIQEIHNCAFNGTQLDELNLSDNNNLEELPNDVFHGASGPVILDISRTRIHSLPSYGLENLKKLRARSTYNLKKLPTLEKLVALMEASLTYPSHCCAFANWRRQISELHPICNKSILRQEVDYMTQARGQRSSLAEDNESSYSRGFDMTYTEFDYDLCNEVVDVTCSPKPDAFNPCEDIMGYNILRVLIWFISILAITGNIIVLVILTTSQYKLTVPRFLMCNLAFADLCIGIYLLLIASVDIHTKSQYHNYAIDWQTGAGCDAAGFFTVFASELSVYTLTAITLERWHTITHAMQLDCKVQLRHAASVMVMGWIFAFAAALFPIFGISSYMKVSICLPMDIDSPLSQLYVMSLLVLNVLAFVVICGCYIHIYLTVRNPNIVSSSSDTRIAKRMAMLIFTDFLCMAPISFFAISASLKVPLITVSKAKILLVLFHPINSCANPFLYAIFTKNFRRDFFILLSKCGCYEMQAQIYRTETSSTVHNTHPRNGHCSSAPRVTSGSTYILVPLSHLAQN
- EXPERIMENTAL PROTOCOL: Antagonistic activity at the human FSH receptor expressed in CHO cells (CRE-luciferase reporter)
- SETTINGS: CHO cells stably transfected with human FSH receptor and CRE-luciferase; with 49 μM recFSH; 4 hours incubation; read-out: IC50 (inhibition of recFSH-induced luciferase stimulation)
ENDPOINT: IC50

[
  {
    "INPUT SMILES": "COCCOc1cc2c(cc1OC)-c1cc(C(=O)N[C@@H](CO)Cc3c[nH]c4ccccc34)c(-c3ccccc3F)cc1OC2",
    "RESULT": "< 100 nM"
  }
]

Challenge: Test system human FSH receptor (Homo sapiens, UniProt P23945); read-out IC50; what value for "COc1cc2c(cc1C#N)-c1cc(C(=O)N[C@@H](CO)Cc3c[nH]c4ccccc34)c(OC(C)C)cc1CC2" ?
Response given: 100 to 1000 nM

Challenge: Test system human FSH receptor (Homo sapiens, UniProt P23945); read-out IC50; what value for "COc1cc2c(cc1OC)-c1cc(C(=O)N[C@@H](CO)Cc3c[nH]c4ccccc34)c(-c3cccc(F)c3F)cc1OC2" ?
Response given: < 100 nM
